Experimental System: T1, BCMA on the surface of BCMA-positive cell lines H929 (NCI-H929) and RPMI8226 (human, UniProt Q02223 1-184)
T1 construct: whole, on cells; Endogenous BCMA of the cell lines; also called 细胞膜表面的BCMA抗原
T1 sequence (looked up): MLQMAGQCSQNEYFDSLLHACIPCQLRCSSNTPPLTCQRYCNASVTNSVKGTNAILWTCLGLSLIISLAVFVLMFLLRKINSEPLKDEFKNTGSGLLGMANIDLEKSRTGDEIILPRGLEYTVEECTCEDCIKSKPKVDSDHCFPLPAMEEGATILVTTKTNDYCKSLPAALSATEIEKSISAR
Measurement Notes: flow cytometry, antibody titration on RPMI8226 cells

Binder | EC50 (µg/mL)
B10.5 (affinity-matured mutant of B10) (scFv, also called 突变体B10.5) scFv: QVQLQQSGAEVKKPGSSVKVSCKASGGTFSKSAIHWVRQAPGQGLEWMGGVIPIFGTANYAQKFQGRVTITADESTSTAYMELSSLRSEDTAVYYCARGWYLDLWGRGTLVTVSSGGSSRSSSSGGGGSGGGGLPVLTQPPSASGTPGQRVTISCSGSSSNIGGYSVNWYQQFPGTAPKLLIYRNNQRPSGVPDRFSGSKSGASASLAISGLQSEDVADYYCAAWDDSLIGYVFGTGTQLTVL | 0.0406
